Data origin: BindingDB's records for PubMed 39442337

test-description: Antagonist activity at PAR4 in mouse washed platelets assessed as inhibition of gamma-PAR4 agonist peptide (AYPGKF-NH2)-induced platelet aggregation preincubated for 5 mins followed by peptide addition and measured after 5 mins by aggregometer
pIC50: −log10 of the molar value.
Tag: TRUE if measured pIC50 is not below 7, FALSE if it is.

>>> group_label("COc1ncc2c(-c3nc4cc(F)c5c(c4s3)C[C@H](COC(=O)Nc3ccc(C(=O)N4CCOCC4)cc3)O5)cc(C)cc2n1")
"FALSE"
>>> group_label("COCCCOc1ncc2cc(C)cc(-c3nc4c(Cl)cc(OC)cc4s3)c2n1")
"FALSE"
>>> group_label("COc1ccc(NC(=O)OC[C@H]2Cc3c(c(F)cc4nc(-c5cc(C)cc6nc(OC)ncc56)sc34)O2)c(C)c1")
"FALSE"
>>> group_label("COc1cc(Cl)c2nc(-c3cc(C)cc4cnc(N5CC6(COC6)C5)nc34)sc2c1")
"FALSE"
>>> group_label("COCc1ncc2c(-c3nc4cc(F)c(OCCOC(=O)OC)cc4s3)cc(C)cc2n1")
"FALSE"
>>> group_label("COCc1ncc2c(-c3nc4cc(F)c(OCCOC(=O)N5CCOCC5)cc4s3)cc(C)cc2n1")
"FALSE"
>>> group_label("COc1ncc2cc(C)cc(-c3nc4cc(F)c(OC)cc4s3)c2n1")
"TRUE"
>>> group_label("COc1ncc2c(-c3nc4cc(F)c5c(c4s3)C[C@H](COC(=O)Nc3cccc(C#N)c3)O5)cc(C)cc2n1")
"TRUE"
>>> group_label("COc1cc(F)c2nc(-c3cc(C)cc4cnc(OC)nc34)sc2c1")
"TRUE"
>>> group_label("COc1ccc(NC(=O)OC[C@H]2Cc3c(c(F)cc4nc(-c5cc(C)cc6nc(OC)ncc56)sc34)O2)cn1")
"FALSE"
>>> group_label("COc1cc(Cl)c2nc(-c3cc(C)cc4cnc(N5CCCCC5)nc34)sc2c1")
"FALSE"
>>> group_label("COCOc1ncc2c(-c3nc4c(Cl)cc(OC)cc4s3)cc(C)cc2n1")
"TRUE"
>>> group_label("CCOc1ncc2c(-c3nc4c(Cl)cc(OC)cc4s3)cc(C)cc2n1")
"FALSE"
>>> group_label("COc1ncc2c(-c3nc4cc(F)c5c(c4s3)C[C@@H](COC(=O)Nc3ccc(C(=O)N4CCOCC4)cc3)O5)cc(C)cc2n1")
"FALSE"
>>> group_label("CCOc1ncc2c(-c3nc4cc(F)c(OC)cc4s3)cc(C)cc2n1")
"FALSE"
